# study system: human thrombin (Homo sapiens, UniProt P00734)
# Construct: human thrombin (Sigma Chemical Company); purchased Sigma Chemical Company
# test summary: Measurement of inhibitory activity for thrombin (S-2238 chromogenic substrate)
# Assay type: biochemical
# condition context: IC50; pH 8.4, 10 minutes at 37 °C, absorbance 405 nm; read-out: Inhibitory activity for thrombin
Counter-ions that a name gives are not always drawn.
test readout: IC50 (µM)
Numbers only, in µM.

Query: I would be grateful if you could share the reported IC50 for CC(C)c1ccc(CCNS(=O)(=O)c2cc(C(=N)N)ccc2O)cc1 [Compound 2, hydrochloride] .
Reply: 101

* * *

# study system: human thrombin (Homo sapiens, UniProt P00734)
# Construct: human thrombin (Sigma Chemical Company); purchased Sigma Chemical Company
# test summary: Measurement of inhibitory activity for thrombin (S-2238 chromogenic substrate)
# Assay type: biochemical
Counter-ions that a name gives are not always drawn.
test readout: IC50

CC(=N)N1CCC(Oc2ccc(CCNS(=O)(=O)c3cc(C(=N)N)ccc3O)cc2)CC1 [Compound 10, dihydrochloride] = > 100 µM

Hi there! I need IC50 for each item below, if you can.
1. CC(=N)N1CCC(c2ccc(CCNS(=O)(=O)c3cc(C(=N)N)ccc3O)cc2)CC1
2. CC(=N)N1CC[C@H](Oc2ccc(CCNS(=O)(=O)c3cc(C(=N)N)ccc3O)cc2)C1 [Compound 9, dihydrochloride]

Reply:
1: > 100 µM; 2: > 100 µM
